tested on: HCT-116 cells; assay: Cell viability (cytotoxicity, LDH release) assay; format: cell-based; conditions: Homo sapiens, 100 µg/mL, 24 h, read-out: percent of viable cells
Listed next: entries and their corresponding viability at 100 µg/mL.

Field: example entries. Status: answers known.
CC1=C(C(=O)OCc2ccccc2)C(c2ccc(F)cc2)C(C#N)=C(N)O1 (stereo not drawn) : 11 to 32.5%
CCOC(=O)C1=C(C)OC(N)=C(C#N)C1c1cccc(O)c1Cl (stereo not drawn) : 86%
COC(=O)C1=C(C)OC(N)=C(C#N)C1c1ccccc1C(=O)O (stereo not drawn) : 46%
COC(=O)C1=C(C)OC(N)=C(C#N)C1c1cccc(O)c1Cl (stereo not drawn) : 55.5%

The measured viability at 100 µg/mL associated with COc1cccc(C2C(C#N)=C(N)OC(C)=C2C(=O)OCc2ccccc2)c1[N+](=O)[O-] (stereo not drawn) reads 11 to 32.5%

The measured viability at 100 µg/mL associated with CC1=C(C(=O)OCc2ccccc2)C(c2ccc(C#N)cc2)C(C#N)=C(N)O1 (stereo not drawn) reads 11 to 32.5%

The measured viability at 100 µg/mL associated with CC1=C(C(=O)OCc2ccccc2)C(c2ccccc2Cl)C(C#N)=C(N)O1 (stereo not drawn) reads 11 to 32.5%

The measured viability at 100 µg/mL associated with CCOC(=O)C1=C(C)OC(N)=C(C#N)C1c1c(OC)cc(OC)cc1OC (stereo not drawn) reads 11 to 32.5%

The measured viability at 100 µg/mL associated with COc1ccc(C2C(C#N)=C(N)OC(C)=C2C(=O)OCc2ccccc2)cc1 (stereo not drawn) reads 94%

* * *

Listed next: entries and their corresponding pIC50.
tested on: K. pneumonia (ATCC 700603); assay: Antibacterial viability (CFU) assay, IC50; assay type: cell-based; settings: Klebsiella pneumoniae, ATCC700603
// pIC50 here means minus log10 of the molar concentration (mol/L)

COc1cc(OC)c(C2C(C#N)=C(N)Oc3n[nH]c(C)c32)c(OC)c1 (centres unmarked) : 3.96

The measured pIC50 associated with CCOC(=O)C1=C(C)OC(N)=C(C#N)C1c1c(OC)cc(OC)cc1OC (centres unmarked) reads 3.93

The measured pIC50 associated with CC1(C)S[C@@H]2[C@H](NC(=O)[C@H](N)c3ccccc3)C(=O)N2[C@H]1C(=O)O [Ampicillin, reference compound] reads 4.48

The measured pIC50 associated with CCOC(=O)C1=C(C)OC(N)=C(C#N)C1c1cccc(O)c1Cl (centres unmarked) reads 4.21

The measured pIC50 associated with CC1=C(C(=O)OCc2ccccc2)C(c2ccc(Cl)cc2Cl)C(C#N)=C(N)O1 (centres unmarked) reads 4.18

The measured pIC50 associated with COc1ccc(C2C(C#N)=C(N)OC(C)=C2C(=O)OCc2ccccc2)cc1 (centres unmarked) reads 4.32

The measured pIC50 associated with CCOC(=O)C1=C(C)OC(N)=C(C#N)C1c1cccc(OC)c1[N+](=O)[O-] (centres unmarked) reads 4.00

The measured pIC50 associated with COC(=O)C1=C(C)OC(N)=C(C#N)C1c1cccc(O)c1Cl (centres unmarked) reads 4.09

The measured pIC50 associated with CCOC(=O)C1=C(C)OC(N)=C(C#N)C1c1cccc(-c2ccccc2)c1 (centres unmarked) reads 4.04

The measured pIC50 associated with CC1=C(C(=O)OCc2ccccc2)C(c2ccc(F)cc2)C(C#N)=C(N)O1 (centres unmarked) reads 4.10

The measured pIC50 associated with COC(=O)C1=C(C)OC(N)=C(C#N)C1c1ccccc1C(=O)O (centres unmarked) reads 3.88

* * *

test system: P. aeruginosa (ATCC 27853); experiment: Antibacterial agar diffusion method (inhibition zone); format: cell-based
Decide by IZ (mm): equal to or exceeding 6 mm means rule met, less means rule not met.

Study these solved cases before continuing.
COc1cc(OC)c(C2C(C#N)=C(N)Oc3n[nH]c(C)c32)c(OC)c1 (stereo not shown) [5b] : rule met
COc1cccc(C2C(C#N)=C(N)OC(C)=C2C(=O)OCc2ccccc2)c1[N+](=O)[O-] (stereo not shown) [4c] : rule met
Cc1[nH]nc2c1C(c1cccc(O)c1Cl)C(C#N)=C(N)O2 (stereo not shown) [5a] : rule not met
CCOC(=O)C1=C(C)OC(N)=C(C#N)C1c1cccc(OC)c1[N+](=O)[O-] (stereo not shown) [4b] : rule not met

Query: Has CC1=C(C(=O)OCc2ccccc2)C(c2ccc(C#N)cc2)C(C#N)=C(N)O1 (stereo not shown) [4k] a recorded IZ (mm) greater than or equal to 6 mm?
Response: rule not met

Query: Has COc1cc(C2C(C#N)=C(N)OC(C)=C2C(=O)OCc2ccccc2)cc(OC)c1OC (stereo not shown) [4d] a recorded IZ (mm) greater than or equal to 6 mm?
Response: rule met

* * *

Listed next: entries and their corresponding pIC50.
tested on: B. subtilis (ATCC 6633); assay: Antibacterial viability (CFU) assay, IC50; format: cell-based; details: Bacillus subtilis, ATCC6633, B. subtilis (ATCC 6633)
// pIC50 here means minus log10 of the molar concentration (mol/L)

Field: example entries. Status: answers known.
CCOC(=O)C1=C(C)OC(N)=C(C#N)C1c1cccc(OC)c1[N+](=O)[O-] (stereo not shown) [4b] : 4.31
CC1(C)S[C@@H]2[C@H](NC(=O)[C@H](N)c3ccccc3)C(=O)N2[C@H]1C(=O)O [Ampicillin, reference compound] : 4.43
COc1cc(C2C(C#N)=C(N)OC(C)=C2C(=O)OCc2ccccc2)cc(OC)c1OC (stereo not shown) [4d] : 4.39
CCOC(=O)C1=C(C)OC(N)=C(C#N)C1c1cccc(O)c1Cl (stereo not shown) [4g] : 4.59

Note: attention shifts to another entry.
The measured pIC50 associated with CCOC(=O)C1=C(C)OC(N)=C(C#N)C1c1cccc(-c2ccccc2)c1 (stereo not shown) [4e] reads 4.42

* * *

test system: K. pneumonia (ATCC 700603); assay: Antibacterial viability (CFU) assay, IC50; assay type: cell-based; settings: Klebsiella pneumoniae, ATCC700603
Response field label takes criterion met when IC50 is strictly below 80 µM and criterion not met in all other cases.

Cc1[nH]nc2c1C(c1cccc(O)c1Cl)C(C#N)=C(N)O2 (centres unmarked) : criterion not met
COc1cccc(C2C(C#N)=C(N)OC(C)=C2C(=O)OCc2ccccc2)c1[N+](=O)[O-] (centres unmarked) : criterion not met
CC1=C(C(=O)OCc2ccccc2)C(c2ccccc2Cl)C(C#N)=C(N)O1 (centres unmarked) : criterion met

Moving on to another compound below.
Query: Is IC50 strictly under 80 µM for the entry COc1cc(C2C(C#N)=C(N)OC(C)=C2C(=O)OCc2ccccc2)cc(OC)c1OC (centres unmarked) ?
Response: criterion met

* * *

experiment: DPPH radical scavenging assay; details: 0.03 to 1 mg/mL, 1 h, mean ± SD, triplicate; read-out: IC50 (mM) for DPPH Scavenging Potency
Response field label takes YES when IC50 is strictly below 2 mM and NO in all other cases.

Study these solved cases before continuing.
COC(=O)C1=C(C)OC(N)=C(C#N)C1c1cccc(O)c1Cl (stereo not shown) [4f] : NO
CC1=C(C(=O)OCc2ccccc2)C(c2ccc(Cl)cc2Cl)C(C#N)=C(N)O1 (stereo not shown) [4m] : YES
CCOC(=O)C1=C(C)OC(N)=C(C#N)C1c1c(OC)cc(OC)cc1OC (stereo not shown) [4h] : YES
Cc1[nH]nc2c1C(c1cccc(O)c1Cl)C(C#N)=C(N)O2 (stereo not shown) [5a] : YES
CCOC(=O)C1=C(C)OC(N)=C(C#N)C1c1cccc(O)c1Cl (stereo not shown) [4g] : YES
COC(=O)C1=C(C)OC(N)=C(C#N)C1c1ccccc1C(=O)O (stereo not shown) [4a] : NO
CC1=C(C(=O)OCc2ccccc2)C(c2ccc(F)cc2)C(C#N)=C(N)O1 (stereo not shown) [4i] : YES
CC1=C(C(=O)OCc2ccccc2)C(c2ccccc2Cl)C(C#N)=C(N)O1 (stereo not shown) [4l] : YES

Query: Is IC50 strictly under 2 mM for the entry COc1ccc(C2C(C#N)=C(N)OC(C)=C2C(=O)OCc2ccccc2)cc1 (stereo not shown) [4j] ?
Response: YES

Query: Is IC50 strictly under 2 mM for the entry COc1cc(OC)c(C2C(C#N)=C(N)Oc3n[nH]c(C)c32)c(OC)c1 (stereo not shown) [5b] ?
Response: YES

Query: Is IC50 strictly under 2 mM for the entry COc1cccc(C2C(C#N)=C(N)OC(C)=C2C(=O)OCc2ccccc2)c1[N+](=O)[O-] (stereo not shown) [4c] ?
Response: NO

Query: Is IC50 strictly under 2 mM for the entry COc1cc(C2C(C#N)=C(N)OC(C)=C2C(=O)OCc2ccccc2)cc(OC)c1OC (stereo not shown) [4d] ?
Response: YES

Query: Is IC50 strictly under 2 mM for the entry CCOC(=O)C1=C(C)OC(N)=C(C#N)C1c1cccc(-c2ccccc2)c1 (stereo not shown) [4e] ?
Response: YES

Query: Is IC50 strictly under 2 mM for the entry Cc1cc(C(C)(C)C)c(O)c(C(C)(C)C)c1 [BHT, butylated hydroxytoluene, reference compound] ?
Response: YES

Query: Is IC50 strictly under 2 mM for the entry CCOC(=O)C1=C(C)OC(N)=C(C#N)C1c1cccc(OC)c1[N+](=O)[O-] (stereo not shown) [4b] ?
Response: NO

Query: Is IC50 strictly under 2 mM for the entry CC1=C(C(=O)OCc2ccccc2)C(c2ccc(C#N)cc2)C(C#N)=C(N)O1 (stereo not shown) [4k] ?
Response: YES
